Listing of recorded melting point by entry.
assay_endpoint: melting point

CSC(=NCCSCc1ncccc1O)NC#N = 192 to 194 °C
O=C(O)CCN1CCN(C2=Nc3ccccc3Cc3ccccc32)CC1 = 140 to 141 °C
N=C(N)c1ccc(N2CCN(c3ccc(CCC(=O)O)cc3)S2(=O)=O)cc1 = > 275 °C
CCOc1cc(C(CS(C)(=O)=O)N2C(=O)c3cccc(CNC(C)=O)c3C2=O)ccc1OC (stereo unspecified) = 84 to 86 °C
COC(=O)c1cc(N2CCC2)c(C(F)(F)F)cc1N = 80 to 86 °C
CCOC(=O)c1cc(O)cc2cc(-c3ccc(O)cc3)oc12 = 221 to 223 °C
CC(c1ccccc1)N1CC(CCl)C(c2ccccc2)(c2ccccc2)C1=O (stereo unspecified) = 115 to 120 °C
CC(C)(C)OC(=O)N1Cc2c(-c3noc(C4CC4)n3)ncn2-c2ccccc21 = 204 °C
CC(=O)SCC(CSC(C)=O)C(=O)N(CC(=O)O)C1Cc2ccccc2C1 = 114 to 115 °C
CCOC1C=CC(=O)N1 (stereo unspecified) = 50 to 52 °C
O=C(Nc1ccc2nc(CN3CCCC3)ccc2c1)N1CCC(c2ccc(F)cc2)CC1 = 206 to 207 °C
FC(F)(F)c1cccc(NC2CCCN(c3ccc(Cl)nn3)C2)c1 (stereo unspecified) = 92.6 °C
N#Cc1ccc([C@@H]2[C@@H]3C(=O)N(CC4CCCCC4)C(=O)[C@@H]3[C@H]3CCCN32)cc1 (racemic) = 119 to 122 °C
CC(C)CCCCCCCCCCCCc1ccc(O)cc1O = 70 °C
CC(C)(C)C(O)(Cn1cncn1)C(Cl)=CBr (stereo unspecified) = 45 to 48 °C
CCOC(=O)c1c(Cl)nc(-c2ccc(N)cc2)c(N)c1C(=O)OCC = 137 °C
CC(=O)c1cccc(Oc2ncccc2OCCCc2ccncc2O)c1 = 101 to 102 °C
CCCOc1ccc(COCCN2CCOCC2)cc1-c1nc2c(CCC)nn(C)c2c(=O)[nH]1 = 65 to 66 °C
CCCn1c(=O)[nH]c2ccc(C(=O)c3ncc4ccc(C(=O)O)cn34)cc2c1=O = 384 °C
Nc1ccc(-c2coc3cc(O)c(O)cc3c2=O)cc1 = 305 to 306 °C
O=Cc1c2cccc(Cl)c2cc2c(Cl)cccc12 = 218 to 220 °C
